Would you kindly list CC50 at 72 h for each of these compounds?
ASSAY PROCEDURE: MTT cell viability / cytotoxicity assay (CC50), 72 hours
Assay type: cell-based
TEST CONDITIONS: human, 72 hours incubation, concentration that reduces signal of viable cells by 50%, table title names Huh-7, THLE2 and PH5CH cells, cell line not given

### Prompt What measured CC50 at 72 h goes with CCOC(=O)c1sc(NCc2ncccn2)nc1-c1ccccn1 ?
### Response ≥ 50 µM

### Prompt Suppose we examine the compound CCOC(=O)Cc1sc(Nc2ncccn2)nc1-c1ccccn1 ; what CC50 at 72 h value has been reported?
### Response < 50 µM

### Prompt Quick one: CC50 at 72 h for CC(C)OC(=O)c1sc(Nc2ncccn2)nc1-c1ncccn1 ?
### Response < 50 µM

### Prompt Look up CC50 at 72 h for this compound: CCOC(=O)Cc1sc(Nc2nccc(C)n2)nc1-c1ccccn1
### Response < 50 µM

### Prompt Value lookup for CC50 at 72 h; key = CCOC(=O)CCc1sc(Nc2ncccn2)nc1-c1ccccn1
### Response < 50 µM

### Prompt What measured CC50 at 72 h goes with CCOCc1sc(Nc2nccc(C)n2)nc1-c1ccccn1 ?
### Response < 50 µM

### Prompt // CC50 at 72 h lookup, key: CC(C)OC(=O)OCN(c1ncccn1)c1nc(-c2cnccn2)c(C(=O)OC(C)C)s1
### Response < 50 µM

### Prompt What measured CC50 at 72 h goes with CCOC(=O)c1sc(Nc2ncccn2)nc1-c1ccncn1 ?
### Response < 50 µM

### Prompt Which CC50 at 72 h reading was recorded for the compound CCOC(=O)CCc1sc(NCc2ncccn2)nc1-c1ccccn1 ?
### Response ≥ 50 µM

### Prompt Look up CC50 at 72 h for this compound: CCOC(=O)c1sc(Nc2ncccn2)nc1-c1cnccn1
### Response < 50 µM

### Prompt Please give the measured CC50 at 72 h for this compound: CCOC(=O)c1sc(NCc2ncccn2)nc1-c1ncccc1C
### Response ≥ 50 µM

### Prompt Quick one: CC50 at 72 h for CC(C)OC(=O)c1sc(Nc2ncccn2)nc1-c1ccccn1 ?
### Response < 50 µM

### Prompt Fill in the blank: the reported CC50 at 72 h of c1ccc(-c2csc(NCc3ncccn3)n2)nc1 is ____.
### Response < 50 µM

### Prompt Fill in: CC50 at 72 h of CC(C)OC(=O)c1sc(N(COP(=O)(OC(C)(C)C)OC(C)(C)C)c2ncccn2)nc1-c1ccccn1 is ___
### Response < 50 µM

### Prompt Please look up its CC50 at 72 h: O=C(Nc1ncccn1)Nc1nc(-c2ccccn2)cs1
### Response ≥ 50 µM

### Prompt Entry under review: O=C(O)CCc1sc(Nc2ncccn2)nc1-c1ccccn1 . Reported CC50 at 72 h?
### Response < 50 µM

### Prompt Data request, read-out CC50 at 72 h, for CCOCc1sc(Nc2ncccn2)nc1-c1ccccn1
### Response < 50 µM

### Prompt Item under review: COCCOCN(c1ncccn1)c1nc(-c2cnccn2)c(C(=O)OC(C)C)s1 . Reported CC50 at 72 h?
### Response ≥ 50 µM

### Prompt Using the record for CC(C)OC(=O)c1sc(Nc2ncccn2)nc1-c1cnccn1 , report its CC50 at 72 h.
### Response < 50 µM

### Prompt Record request: CC50 at 72 h value, item CCOC(=O)Cc1sc(NCc2ncccn2)nc1-c1ccccn1
### Response < 50 µM

### Prompt Name the recorded CC50 at 72 h for O=C(O)CCc1sc(NCc2ncccn2)nc1-c1ccccn1 .
### Response ≥ 50 µM

---

For each of the compounds below, state its CC50 at 72 h.
ASSAY PROCEDURE: MTT cell viability / cytotoxicity assay (CC50), 72 hours
Assay type: cell-based
TEST CONDITIONS: human, 72 hours incubation, concentration that reduces signal of viable cells by 50%, table title names Huh-7, THLE2 and PH5CH cells, cell line not given

### Prompt Recorded CC50 at 72 h of CC(C)OC(=O)C1=C(c2ccncn2)NC(Nc2ncccn2)S1 (centres unmarked) , please.
### Response < 50 µM

### Prompt Item under review: CC(C)OC(=O)c1sc(N(COP(=O)(OC(C)(C)C)OC(C)(C)C)c2ncccn2)nc1-c1cnccn1 . Reported CC50 at 72 h?
### Response < 50 µM

### Prompt Please look up its CC50 at 72 h: CCOC(=O)c1sc(Nc2nccc(C)n2)nc1-c1ncccc1C
### Response ≥ 50 µM

### Prompt GET /values?readout=CC50 at 72 h&item= CCOCc1sc(NCc2ncccn2)nc1-c1ccccn1
### Response ≥ 50 µM

### Prompt Reported CC50 at 72 h for CCOC(=O)c1sc(Nc2ncccn2)nc1-c1cc(C(F)(F)F)ccn1 : what is it?
### Response < 50 µM
